- assayText: total protein half-life in vivo (active degradation + dilution); higher = more stable protein
- recordedConditions: wild type E. coli NCM3722; growth: N-lim chemostat; doubling time 6 h
reportedMetric: total protein half-life in vivo (h)
A number alone suffices; assume h.

Problem: Reported total protein half-life in vivo for MYYPFVRKALFQLDPERAHEFTFQQLRRITGTPFEALVRQKVPAKPVNCMGLTFKNPLGLAAGLDKDGECIDALGAMGFGSIEIGTVTPRPQPGNDKPRLFRLVDAEGLINRMGFNNLGVDNLVENVKKAHYDGVLGINIGKNKDTPVEQGKDDYLICMEKIYAYAGYIAINISSPNTPGLRTLQYGEALDDLLTAIKNKQNDLQAMHHKYVPIAVKIAPDLSEEELIQVADSLVRHNIDGVIATNTTLDRSLVQGMKNCDQTGGLSGRPLQLKSTEIIRRLSLELNGRLPIIGVGGIDSVIAAREKIAAGASLVQIYSGFIFKGPPLIKEIVTHI [P0A7E1] : what is it?
Solution: 6.26
